Items are presented alongside their recorded pEC50.
tested-target: Cannabinoid receptor 1 (Homo sapiens)
Sequence (P21554 whole entry): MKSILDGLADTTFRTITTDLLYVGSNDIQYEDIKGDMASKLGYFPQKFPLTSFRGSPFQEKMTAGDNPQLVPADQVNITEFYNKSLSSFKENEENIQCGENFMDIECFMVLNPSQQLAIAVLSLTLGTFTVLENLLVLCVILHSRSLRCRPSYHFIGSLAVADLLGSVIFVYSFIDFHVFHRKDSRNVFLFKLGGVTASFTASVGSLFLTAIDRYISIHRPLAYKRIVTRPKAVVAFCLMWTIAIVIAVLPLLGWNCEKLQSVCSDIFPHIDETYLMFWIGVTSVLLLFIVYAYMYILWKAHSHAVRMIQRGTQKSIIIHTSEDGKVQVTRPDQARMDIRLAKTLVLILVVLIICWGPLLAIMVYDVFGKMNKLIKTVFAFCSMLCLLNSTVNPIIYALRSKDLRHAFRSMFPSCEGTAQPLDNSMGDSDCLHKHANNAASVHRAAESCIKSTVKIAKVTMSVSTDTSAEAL
protocol-description: Inverse agonist activity at CB1 receptor (unknown origin) expressed in HEK cells assessed as increase in cAMP production measured at 50 mins by ACTOne dye-based fluorescence assay in presence of forskolin and Ro 20-1724
Assay type: functional, cell-based, HEK293
condition-summary: read-out: EC50
# reply with the number alone; pEC50 is -log10 of concentration in mol/L

1) O=C(c1ccc(Cl)cc1)c1cc(O)c(-c2cc(Cl)cc(Cl)c2)c(O)c1 5.48

Summary: COc1cc(C(=O)c2ccc(Cl)cc2)cc(O)c1-c1cc(Cl)cc(Cl)c1 , Cannabinoid receptor 1 (Homo sapiens), pEC50 = 5.54

###

tested-target: Cannabinoid receptor 1 (Homo sapiens)
protocol-description: Inverse agonist activity at CB1 receptor (unknown origin) expressed in HEK cells assessed as increase in cAMP production at 5 x 10^-6 to 5 x 10^-10 M measured at 50 mins by ACTOne dye-based fluorescence assay in presence of forskolin and Ro 20-1724 relative to control
Type: functional, cell-based
condition-summary: HEK293
Active and inactive are the calls of the source. No cut-off for these calls is given here.
measured-endpoint: Efficacy

Known results for compounds:
compound	measured-value
COc1cc(C(=O)c2ccc(Cl)cc2)cc(O)c1-c1cc(Cl)cc(Cl)c1	71.3%
O=C(c1ccc(Cl)cc1)c1cc(O)c(-c2cc(Cl)cc(Cl)c2)c(O)c1	169%
Cc1ccc(C(=O)c2cc(O)c(-c3cc(Cl)cc(Cl)c3)c(O)c2)cc1	inactive
CCc1cccc(C(=O)c2cc(O)c(-c3cc(Cl)cc(Cl)c3)c(O)c2)c1	inactive
CCCCc1ccc(C(=O)c2cc(OC)c(-c3cc(Cl)cc(Cl)c3)c(OC)c2)cc1	inactive
O=C(c1ccc(O)cc1)c1cc(O)c(-c2cc(Cl)cc(Cl)c2)c(O)c1	inactive

Please fill in: Efficacy reported for CCCCc1ccc(C(=O)c2cc(O)c(-c3cc(Cl)cc(Cl)c3)c(O)c2)cc1 = inactive

Please fill in: Efficacy reported for Cc1cc(C)cc(C(=O)c2cc(O)c(-c3cc(Cl)cc(Cl)c3)c(O)c2)c1 = inactive

Please fill in: Efficacy reported for Cc1ccc(Cn2nc(C(=O)NC3C4(C)CCC(C4)C3(C)C)cc2-c2ccc(Cl)c(C)c2)cc1 (centres undefined) [SR-144528] = inactive

###

tested-target: Cannabinoid receptor 2 (Homo sapiens)
Sequence (P34972 whole entry): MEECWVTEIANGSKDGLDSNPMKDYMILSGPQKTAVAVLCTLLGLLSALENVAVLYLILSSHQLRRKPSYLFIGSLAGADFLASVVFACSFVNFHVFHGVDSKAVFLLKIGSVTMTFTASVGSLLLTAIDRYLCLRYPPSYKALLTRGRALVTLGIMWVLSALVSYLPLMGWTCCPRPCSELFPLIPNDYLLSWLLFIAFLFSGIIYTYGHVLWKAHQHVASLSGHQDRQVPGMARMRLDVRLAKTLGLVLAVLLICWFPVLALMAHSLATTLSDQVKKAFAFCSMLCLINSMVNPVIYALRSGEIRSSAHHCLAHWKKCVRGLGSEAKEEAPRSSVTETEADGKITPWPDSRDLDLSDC
protocol-description: Inverse agonist activity at CB2 receptor (unknown origin) expressed in HEK cells assessed as increase in cAMP production at 5 x 10^-6 to 5 x 10^-10 M measured at 50 mins by ACTOne dye-based fluorescence assay in presence of forskolin and Ro 20-1724 relative to control
Assay type: functional, cell-based
condition-summary: HEK293
The source made the active and inactive calls. No cut-off for these calls is given here.
measured-endpoint: Efficacy

Known results for molecules:
1. CC(C)(C)c1ccc(C(=O)c2cc(O)c(-c3cc(Cl)cc(Cl)c3)c(O)c2)cc1 275%
2. CCCCc1ccc(C(=O)c2cc(O)c(-c3cc(Cl)cc(Cl)c3)c(O)c2)cc1 176%
3. Cc1cc(C)cc(C(=O)c2cc(O)c(-c3cc(Cl)cc(Cl)c3)c(O)c2)c1 inactive
4. O=C(c1ccccc1)c1cc(O)c(-c2cc(Cl)cc(Cl)c2)c(O)c1 54.8%

Please turn your attention to the following entry.
Please fill in: Efficacy reported for CCCCc1ccc(C(=O)c2cc(OC)c(-c3cc(Cl)cc(Cl)c3)c(OC)c2)cc1 = inactive
